Every entry's value here was drawn from patent US9708316B2.

Some compounds, each annotated with its measured IC50.
Test System: HIS-TGFβR2 WT (Homo sapiens)
Protocol Description: HTRF probe-displacement assay, HIS-TGFβR2 WT
Assay type: binding

Previously resolved entries follow.
[
  {
    "Compound": "CC(=O)Nc1cc(-c2[nH]c3cc(F)cnc3c2-c2ncc(C(F)F)s2)ccn1 [Example 182]",
    "Observed Property": "IC50",
    "Result": "> 15 µM"
  },
  {
    "Compound": "CC(=O)Nc1cc(-c2[nH]c3cccnc3c2-c2ccc(Cl)c(C)n2)ccn1 [Example 33]",
    "Observed Property": "IC50",
    "Result": "> 15 µM"
  },
  {
    "Compound": "CC(=O)Nc1cc(-c2[nH]c3cccnc3c2-c2ccc3cnccc3c2)ccn1 [Example 17]",
    "Observed Property": "IC50",
    "Result": "> 15 µM"
  },
  {
    "Compound": "COc1cccc(-c2c(-c3ccnc(NC(C)=O)c3)[nH]c3cc(Cl)cnc23)n1 [Example 65]",
    "Observed Property": "IC50",
    "Result": "> 15 µM"
  }
]

Query: Tell me measured IC50 for COc1ccc(-c2c(-c3ccnc(NC(C)=O)c3)[nH]c3cc(NC(C)=O)cnc23)nc1 [Example 157] please.
Result: > 15 µM

* * *

Test System: HIS-TGFβR2 WT (Homo sapiens)
Protocol Description: HTRF probe-displacement assay, HIS-TGFβR2 WT
Format: binding
Some compounds, each annotated with its measured IC50.

[
  {
    "Structure String": "COc1ncc(-c2c(-c3ccnc(NC(C)=O)c3)[nH]c3cccnc23)cn1",
    "Observed Property": "IC50",
    "Result": "> 15 µM"
  },
  {
    "Structure String": "[2H]C([2H])([2H])Oc1ccc(-c2c(-c3ccnc(NC(C)=O)c3)[nH]c3cc(Cl)cnc23)nc1",
    "Observed Property": "IC50",
    "Result": "> 15 µM"
  },
  {
    "Structure String": "COc1ccc(-c2c(-c3ccnc(NC(=O)CN4CCN(CCO)CC4)c3)[nH]c3cc(Cl)cnc23)nc1",
    "Observed Property": "IC50",
    "Result": "> 15 µM"
  }
]

Query: Tell me measured IC50 for COc1ccc(-c2c(-c3ccnc(NC(C)=O)c3)[nH]c3cc(N4CCCC4)cnc23)nc1 please.
Result: > 15 µM

* * *

Test System: HIS-TGFβR1 T204D (Homo sapiens, UniProt P36897, T204D)
Protocol Description: HTRF probe-displacement assay, HIS-TGFβR1 T204D
Format: binding
Experimental Context: read-out: TGFβR1 (μM) IC50
Some compounds, each annotated with its measured IC50.
Could you kindly put the unit after your number?

Previously resolved entries follow.
[
  {
    "Structure String": "CC(=O)Nc1cc(-c2[nH]c3cc(Cl)cnc3c2-c2cccc(F)n2)ccn1",
    "IC50": "0.003 µM"
  },
  {
    "Structure String": "CC(=O)Nc1cc(-c2[nH]c3c(C)ccnc3c2-c2ncc(C)s2)ccn1",
    "IC50": "0.0017 µM"
  }
]

Query: Fill in IC50 for CC(=O)Nc1cc(-c2[nH]c3cccnc3c2-c2ccc(C#N)s2)ccn1 tested with HIS-TGFβR1 T204D (Homo sapiens, UniProt P36897, T204D).
Result: 0.0104 µM

Query: Fill in IC50 for COC(=O)c1cc(Cl)nc2c(-c3ccc(Cl)cn3)c(-c3ccnc(NC(C)=O)c3)[nH]c12 tested with HIS-TGFβR1 T204D (Homo sapiens, UniProt P36897, T204D).
Result: 7.73 µM

* * *

Test System: HIS-TGFβR2 WT (Homo sapiens, UniProt P37173)
Sequence (P37173 23-567): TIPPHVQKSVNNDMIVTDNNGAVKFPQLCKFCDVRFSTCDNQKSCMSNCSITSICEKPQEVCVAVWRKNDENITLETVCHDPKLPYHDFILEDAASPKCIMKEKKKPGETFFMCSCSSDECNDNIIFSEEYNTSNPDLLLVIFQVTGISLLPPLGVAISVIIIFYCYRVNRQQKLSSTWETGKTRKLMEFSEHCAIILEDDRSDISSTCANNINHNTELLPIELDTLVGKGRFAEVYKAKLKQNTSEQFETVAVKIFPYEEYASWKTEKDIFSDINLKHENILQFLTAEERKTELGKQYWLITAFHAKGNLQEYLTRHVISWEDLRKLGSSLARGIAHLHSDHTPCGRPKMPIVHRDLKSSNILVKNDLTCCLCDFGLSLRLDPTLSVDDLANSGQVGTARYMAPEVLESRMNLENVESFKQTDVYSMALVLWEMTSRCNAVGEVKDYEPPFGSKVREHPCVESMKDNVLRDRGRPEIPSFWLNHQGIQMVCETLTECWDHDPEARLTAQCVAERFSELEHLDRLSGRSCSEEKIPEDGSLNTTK
Protocol Description: HTRF probe-displacement assay, HIS-TGFβR2 WT
Format: binding
Some molecules, each annotated with its measured IC50.
Please reply with the bare figure in µM and do not write the unit itself.

[
  {
    "Molecule": "CC(=O)Nc1cc(-c2[nH]c3cccnc3c2-c2cc(Cl)ccn2)ccn1 [Example 32]",
    "IC50 (µM)": 0.44
  }
]

Let us move to another entry and its IC50.
Query: Tell me measured IC50 for CC(=O)Nc1cc(-c2[nH]c3c(C(C)O)ccnc3c2-c2cccc(Cl)n2)ccn1 (centres unmarked) [Example 263] please.
Result: 0.279

* * *

Some compounds, each annotated with its measured IC50.
Test System: HIS-TGFβR1 T204D (Homo sapiens, UniProt P36897, T204D)
Protocol Description: HTRF probe-displacement assay, HIS-TGFβR1 T204D
Type: binding
Experimental Context: read-out: TGFβR1 (μM) IC50
Please reply with the bare figure in µM and do not write the unit itself.

Previously resolved entries follow.
[
  {
    "Compound": "CC(=O)Nc1cc(-c2[nH]c3cccnc3c2-c2cnc(F)c(C)c2)ccn1",
    "IC50 (µM)": 0.027
  },
  {
    "Compound": "CC(=O)Nc1cc(-c2[nH]c3cc(C)cnc3c2-c2csc(C)n2)ccn1",
    "IC50 (µM)": 0.0029
  }
]

Query: Tell me measured IC50 for CC(=O)Nc1cc(-c2[nH]c3cc(Cl)cnc3c2-c2nc(C)cs2)ccn1 please.
Result: 0.0005

Query: Tell me measured IC50 for CC(=O)Nc1cc(-c2[nH]c3cc(F)cnc3c2-c2nc(C#N)cs2)ccn1 please.
Result: 0.0041

Query: Tell me measured IC50 for CC(=O)Nc1cc(-c2[nH]c3cc(Cl)cnc3c2-c2nc(C(F)F)cs2)ccn1 please.
Result: 0.0004

Query: Tell me measured IC50 for CC(=O)Nc1cc(-c2[nH]c3c(C(C)O)ccnc3c2-c2ccc(F)nc2)ccn1 (stereo not shown) please.
Result: 0.005

Query: Tell me measured IC50 for CC(=O)Nc1cc(-c2[nH]c3c(C(C)O)ccnc3c2-c2ccc(F)cn2)ccn1 (stereo not shown) please.
Result: 0.004

Query: Tell me measured IC50 for CC(=O)Nc1cc(-c2[nH]c3cc(Cl)cnc3c2-c2nc(C(F)(F)F)cs2)ccn1 please.
Result: 0.0004

Query: Tell me measured IC50 for COc1cccc(-c2c(-c3ccnc(NC(C)=O)c3)[nH]c3cccnc23)n1 please.
Result: 0.006

Query: Tell me measured IC50 for CNCc1cnc2c(-c3ccc(OC)cn3)c(-c3ccnc(NC(C)=O)c3)[nH]c2c1 please.
Result: 0.016

Query: Tell me measured IC50 for COCC(C)Oc1cnc2c(-c3ccc(OC)cn3)c(-c3ccnc(NC(C)=O)c3)[nH]c2c1 (stereo not shown) please.
Result: 0.001

* * *

Test System: HIS-TGFβR1 T204D (Homo sapiens, UniProt P36897, T204D)
Sequence (P36897 34-503 T204D): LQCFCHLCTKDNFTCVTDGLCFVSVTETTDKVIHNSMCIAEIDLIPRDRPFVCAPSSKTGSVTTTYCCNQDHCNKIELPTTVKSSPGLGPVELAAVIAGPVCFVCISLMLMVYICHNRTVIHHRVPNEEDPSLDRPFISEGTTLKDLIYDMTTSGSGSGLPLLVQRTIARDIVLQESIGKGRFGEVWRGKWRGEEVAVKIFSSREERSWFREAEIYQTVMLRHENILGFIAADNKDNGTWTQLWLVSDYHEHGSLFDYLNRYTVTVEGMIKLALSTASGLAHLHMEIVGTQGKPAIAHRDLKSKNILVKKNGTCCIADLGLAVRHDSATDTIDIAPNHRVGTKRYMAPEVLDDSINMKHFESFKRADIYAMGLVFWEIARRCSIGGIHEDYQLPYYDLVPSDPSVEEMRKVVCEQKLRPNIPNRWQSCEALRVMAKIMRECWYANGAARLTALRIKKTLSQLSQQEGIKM
Protocol Description: HTRF probe-displacement assay, HIS-TGFβR1 T204D
Type: binding
Experimental Context: read-out: TGFβR1 (μM) IC50
Some molecules, each annotated with its measured IC50.
Please reply with the bare figure in µM and do not write the unit itself.

Previously resolved entries follow.
[
  {
    "Molecule": "COc1ccc(-c2c(-c3ccnc(NC(C)=O)c3)n(C)c3cccnc23)cn1 [Example 54]",
    "Test System": "HIS-TGFβR1 T204D (Homo sapiens, UniProt P36897, T204D)",
    "Observed Property": "IC50",
    "Unit": "µM",
    "Number": 0.021
  },
  {
    "Molecule": "CC(=O)Nc1cc(-c2[nH]c3cccnc3c2-c2ccc(C(F)(F)F)nc2)ccn1 [Example 13]",
    "Test System": "HIS-TGFβR1 T204D (Homo sapiens, UniProt P36897, T204D)",
    "Observed Property": "IC50",
    "Unit": "µM",
    "Number": 0.002
  }
]

Query: Fill in IC50 for COc1ccc(-c2c(-c3ccnc(NC(C)=O)c3)[nH]c3cc(C#N)cnc23)nc1 [Example 92] tested with HIS-TGFβR1 T204D (Homo sapiens, UniProt P36897, T204D).
Result: 0.002

Query: Fill in IC50 for CC(=O)Nc1cc(-c2[nH]c3cc(Br)cnc3c2-c2cccc(C(F)F)n2)ccn1 [Example 272] tested with HIS-TGFβR1 T204D (Homo sapiens, UniProt P36897, T204D).
Result: 0.001
